# System: Enterobacter cloacae
# assay.name: Antibacterial activity against Enterobacter cloacae ARC3528 after 24 hrs by broth microdilution method
# Type: functional
# protocol.conditions: ARC3528, 24 h

[
  {
    "compound": "CCNC(=O)Nc1cc(-c2nc(C(F)(F)F)cs2)c(-c2cc(-c3n[nH]c(=O)o3)cnc2N2C3CCC2CN(C)C3)cn1",
    "target.or.test.system": "Enterobacter cloacae",
    "qualifier": "=",
    "MIC (µg/mL)": 32
  },
  {
    "compound": "CCNC(=O)Nc1cc(-c2nc(C(F)(F)F)cs2)c(-c2cc3ncccc3nc2N2C3CCC2CN(C)C3)cn1",
    "target.or.test.system": "Enterobacter cloacae",
    "qualifier": ">",
    "MIC (µg/mL)": 64
  },
  {
    "compound": "CCNC(=O)Nc1cc(-c2nc(C3CC3)cs2)c(-c2cc(-c3n[nH]c(=O)o3)cnc2N2C3CCC2CN(C)C3)cn1",
    "target.or.test.system": "Enterobacter cloacae",
    "qualifier": "=",
    "MIC (µg/mL)": 16
  },
  {
    "compound": "CC(C)(O/N=C(\\C(=O)N[C@@H]1C(=O)N2C(C(=O)[O-])=C(C[n+]3ccccc3)CS[C@H]12)c1csc(N)n1)C(=O)O [CEFTAZIDIME]",
    "target.or.test.system": "Enterobacter cloacae",
    "qualifier": ">",
    "MIC (µg/mL)": 32
  },
  {
    "compound": "CC(=O)NC[C@H]1CN(c2ccc(N3CCOCC3)c(F)c2)C(=O)O1 [LINEZOLID]",
    "target.or.test.system": "Enterobacter cloacae",
    "qualifier": ">",
    "MIC (µg/mL)": 64
  }
]

---

# assay.name: Dissociation constant, pKa of compound by pH metric method
# Format: physicochemical

[
  {
    "smiles.code": "CCNC(=O)Nc1cc(-c2nc(C(F)(F)F)cs2)c(-c2cncc(C(=O)O)c2)cn1",
    "pKa": 3.5
  },
  {
    "smiles.code": "CCNC(=O)Nc1cc(-c2nc(C(F)(F)F)cs2)c(-c2cc3ncccc3nc2N2CCN(C)CC2)cn1",
    "pKa": 7.4
  },
  {
    "smiles.code": "CCNC(=O)Nc1cc(-c2nc(C(F)(F)F)cs2)c(-c2cc3ncccc3nc2N2CCC(N)CC2)cn1",
    "pKa": 9.3
  },
  {
    "smiles.code": "CCNC(=O)Nc1cc(-c2nc(C(F)(F)F)cs2)c(-c2cc3ncccc3nc2N2CC3CCCC(C2)N3)cn1",
    "pKa": 9.2
  }
]

---

# assay.name: Dissociation constant, acidic pKa of compound by pH metric method
# Assay type: physicochemical

[
  {
    "smiles.code": "CCNC(=O)Nc1cc(-c2nc(C3CC3)cs2)c(-c2cc(-c3n[nH]c(=O)o3)cnc2N2C3CCC2CN(C)C3)cn1",
    "pKa": 6.7
  },
  {
    "smiles.code": "CCNC(=O)Nc1cc(-c2nc(C(F)(F)F)cs2)c(-c2cc(-c3nnn[nH]3)cnc2N2C3CCC2CN(C)C3)cn1",
    "pKa": 3.6
  },
  {
    "smiles.code": "CCNC(=O)Nc1cc(-c2nc(C(F)(F)F)cs2)c(-c2cc(-c3n[nH]c(=O)o3)cnc2N2CCC(N)CC2)cn1",
    "pKa": 6.8
  },
  {
    "smiles.code": "CCNC(=O)Nc1cc(-c2nc(C(F)(F)F)cs2)c(-c2cc(-c3n[nH]c(=O)o3)cnc2N2[C@@H]3CC[C@H]2C[C@@H](N)C3)cn1",
    "pKa": 6.8
  },
  {
    "smiles.code": "CCNC(=O)Nc1cc(-c2nc(C(F)(F)F)cs2)c(-c2cc(C(=O)O)cnc2N2C3CCC2CN(C)C3)cn1",
    "pKa": 3.5
  },
  {
    "smiles.code": "CCNC(=O)Nc1cc(-c2nc(C(F)(F)F)cs2)c(-c2cc(C(=O)NS(C)(=O)=O)cnc2N2C3CCC2CN(C)C3)cn1",
    "pKa": 3.2
  },
  {
    "smiles.code": "CCNC(=O)Nc1cc(-c2nc(C(F)(F)F)cs2)c(-c2cc(C(=O)O)ccc2N2C3CCC2CN(C)C3)cn1",
    "pKa": 4.4
  },
  {
    "smiles.code": "CCNC(=O)Nc1cc(-c2nc(C(F)(F)F)cs2)c(-c2cc(-c3n[nH]c(=O)o3)cnc2N2C3CCC2CN(C)C3)cn1",
    "pKa": 6.7
  }
]

---

# Test system: Acinetobacter baumannii
# assay.name: Antibacterial activity against Acinetobacter baumannii ARC3882 after 24 hrs by broth microdilution method
# Format: functional
# protocol.conditions: ARC3882, 24 h
Property: MIC; scope: individual compounds
measured.property: MIC

[
  {
    "smiles.code": "CCNC(=O)Nc1cc(-c2nc(C(F)(F)F)cs2)c(-c2cc(-c3n[nH]c(=O)o3)cnc2N2C3CCC2CN(C)C3)cn1",
    "measured.property": "MIC",
    "measured": "1 mg/L"
  },
  {
    "smiles.code": "C[C@@H](O)[C@H]1C(=O)N2C(C(=O)O)=C(S[C@@H]3CN[C@H](C(=O)N(C)C)C3)[C@H](C)[C@H]12",
    "measured.property": "MIC",
    "measured": "> 64 mg/L"
  },
  {
    "smiles.code": "CCNC(=O)Nc1cc(-c2nc(C3CC3)cs2)c(-c2cc(-c3n[nH]c(=O)o3)cnc2N2C3CCC2CN(C)C3)cn1",
    "measured.property": "MIC",
    "measured": "1 mg/L"
  },
  {
    "smiles.code": "CCNC(=O)Nc1cc(-c2nc(C(F)(F)F)cs2)c(-c2cc3ncccc3nc2N2C3CCC2CN(C)C3)cn1",
    "measured.property": "MIC",
    "measured": "2 mg/L"
  }
]

---

# System: Acinetobacter baumannii
# assay.name: Antibacterial activity against Acinetobacter baumannii ARC3485 after 24 hrs by broth microdilution method
# Type: functional
# protocol.conditions: ARC3485, 24 h

[
  {
    "smiles.code": "CCNC(=O)Nc1cc(-c2nc(C(F)(F)F)cs2)c(-c2cc3ncccc3nc2N2C3CCC2CN(C)C3)cn1",
    "MIC [µg/mL]": 2
  },
  {
    "smiles.code": "CCNC(=O)Nc1cc(-c2nc(C(F)(F)F)cs2)c(-c2cc(-c3n[nH]c(=O)o3)cnc2N2C3CCC2CN(C)C3)cn1",
    "MIC [µg/mL]": 2
  },
  {
    "smiles.code": "CCNC(=O)Nc1cc(-c2nc(C3CC3)cs2)c(-c2cc(-c3n[nH]c(=O)o3)cnc2N2C3CCC2CN(C)C3)cn1",
    "MIC [µg/mL]": 2
  },
  {
    "smiles.code": "C[C@@H](O)[C@H]1C(=O)N2C(C(=O)O)=C(S[C@@H]3CN[C@H](C(=O)N(C)C)C3)[C@H](C)[C@H]12",
    "MIC [µg/mL]": 32
  }
]

---

Form field: MIC (one value per entry).
# System: Streptococcus pneumoniae
# assay.name: Antibacterial activity against Streptococcus pneumoniae ATCC 49619 after 24 hrs by broth microdilution method
# Type: functional
# protocol.conditions: ATCC 49619, 24 h

[
  {
    "compound": "CCNC(=O)Nc1cc(-c2nc(C(F)(F)F)cs2)c(-c2cc3ncccc3nc2N2C3CCC2CN(C)C3)cn1",
    "MIC": "< 0.06 µg/mL"
  },
  {
    "compound": "CC(C)(O/N=C(\\C(=O)N[C@@H]1C(=O)N2C(C(=O)[O-])=C(C[n+]3ccccc3)CS[C@H]12)c1csc(N)n1)C(=O)O [CEFTAZIDIME]",
    "MIC": "0.5 µg/mL"
  },
  {
    "compound": "CCNC(=O)Nc1cc(-c2nc(C(F)(F)F)cs2)c(-c2cc(-c3n[nH]c(=O)o3)cnc2N2C3CCC2CN(C)C3)cn1",
    "MIC": "< 0.06 µg/mL"
  },
  {
    "compound": "CCNC(=O)Nc1cc(-c2nc(C3CC3)cs2)c(-c2cc(-c3n[nH]c(=O)o3)cnc2N2C3CCC2CN(C)C3)cn1",
    "MIC": "< 0.06 µg/mL"
  }
]

---

# assay.name: Growth inhibition of human A549 cells
# Type: cell-based
// values below are reported GI50

[
  {
    "smiles.code": "CCNC(=O)Nc1cc(-c2nc(C(F)(F)F)cs2)c(-c2cc3ncccc3nc2N2CC3CCCC(C2)N3)cn1",
    "GI50": "> 50 µM"
  },
  {
    "smiles.code": "CCNC(=O)Nc1cc(-c2nc(C3CC3)cs2)c(-c2cc(-c3n[nH]c(=O)o3)cnc2N2C3CCC2CN(C)C3)cn1",
    "GI50": "> 25 µM"
  },
  {
    "smiles.code": "CCNC(=O)Nc1cc(-c2nc(C(F)(F)F)cs2)c(-c2cc3ncccc3nc2N2C3CC2CN(C)C3)cn1",
    "GI50": "> 50 µM"
  },
  {
    "smiles.code": "CCNC(=O)Nc1cc(-c2nc(C(F)(F)F)cs2)c(-c2cc(-c3n[nH]c(=O)o3)cnc2N2C3CCC2CN(C)C3)cn1",
    "GI50": "> 40 µM"
  },
  {
    "smiles.code": "CCNC(=O)Nc1cc(-c2nc(C(F)(F)F)cs2)c(-c2cc3ncccc3nc2N2C3CCC2CN(C)C3)cn1",
    "GI50": "> 25 µM"
  },
  {
    "smiles.code": "CCNC(=O)Nc1cc(-c2nc(C(F)(F)F)cs2)c(-c2cc(C(=O)O)cnc2N2C3CCC2CN(C)C3)cn1",
    "GI50": "> 50 µM"
  }
]
